Test system: Rattus norvegicus
Test protocol: Antiallergic activity by passive cutaneous anaphylaxis test after intravenous administration.
Type: functional
Reported conditions: read-out: ID50 (the source's name)
# reported ED50; entries follow

{"columns": ["Compound", "Relation", "ED50 (µmol/kg)"],
 "data": [
  ["CC1CCC(/C=N/c2ccc(C(F)(F)F)cc2)=C2NC=C(C(=O)O)C(=O)N21 (stereo unspecified)", ">", 100],
  ["O=C([O-])c1cc(=O)c2c(OCC(O)COc3cccc4oc(C(=O)[O-])cc(=O)c34)cccc2o1.[Na+].[Na+] [CROMOLYN SODIUM]", "=", 1],
  ["CC(=O)c1ccc(/N=C/C2=C3NC=C(C(=O)O)C(=O)N3C(C)CC2)cc1 (stereo unspecified)", "=", 0.75],
  ["CC1CCC(/C=N/c2ccccc2F)=C2NC=C(C(=O)O)C(=O)N21 (stereo unspecified)", "=", 14.5],
  ["Cc1nc2n(c(=O)c1/C=C/C(=O)O)C(C)CC/C2=N\\Nc1ccccc1 (stereo unspecified)", "=", 0.29],
  ["CCOC(=O)C1=CNC2=C(/C=N/c3ccccc3C(=O)O)CCC(C)N2C1=O (stereo unspecified)", "=", 24.8],
  ["C[C@@H]1CC/C(=N\\Nc2ccccc2)c2ncc(C(=O)O)c(=O)n21", "=", 54.8],
  ["CCOC(=O)C1=CNC2=C(/C=N/c3ccc(C(=O)O)cc3)CCC(C)N2C1=O (stereo unspecified)", "=", 67.1],
  ["CC1CCC(/C=N/c2cccc(C(=O)O)c2)=C2NC=CC(=O)N21 (stereo unspecified)", ">", 100],
  ["CC1CCC(/C=N/c2ccc(O)cc2)=C2NC=C(C(=O)O)C(=O)N21 (stereo unspecified)", "=", 1.2],
  ["Cc1ccc(/N=C/C2=C3NC=C(C(=O)O)C(=O)N3C(C)CC2)cc1 (stereo unspecified)", "=", 3.6],
  ["CC1CCC(/C=N/c2ccc(CC(=O)O)cc2)=C2NC=C(C(=O)O)C(=O)N21 (stereo unspecified)", "=", 5.8],
  ["CC1CCC(/C=N/c2ccccc2O)=C2NC=C(C(=O)O)C(=O)N21 (stereo unspecified)", "=", 4.11],
  ["CC1CCC(/C=N/c2ccc(C(=O)O)cc2)=C2NC=CC(=O)N21 (stereo unspecified)", ">", 100],
  ["C[C@H]1CC/C(=N\\Nc2ccccc2)c2ncc(C(=O)O)c(=O)n21", "=", 0.3],
  ["Cc1cccc(/N=C/C2=C3NC=C(C(=O)O)C(=O)N3C(C)CC2)c1 (stereo unspecified)", "=", 0.8]
]}
